biological target: Cytochrome P450 1A2 (Homo sapiens, UniProt P05177)
Sequence (P05177 whole entry): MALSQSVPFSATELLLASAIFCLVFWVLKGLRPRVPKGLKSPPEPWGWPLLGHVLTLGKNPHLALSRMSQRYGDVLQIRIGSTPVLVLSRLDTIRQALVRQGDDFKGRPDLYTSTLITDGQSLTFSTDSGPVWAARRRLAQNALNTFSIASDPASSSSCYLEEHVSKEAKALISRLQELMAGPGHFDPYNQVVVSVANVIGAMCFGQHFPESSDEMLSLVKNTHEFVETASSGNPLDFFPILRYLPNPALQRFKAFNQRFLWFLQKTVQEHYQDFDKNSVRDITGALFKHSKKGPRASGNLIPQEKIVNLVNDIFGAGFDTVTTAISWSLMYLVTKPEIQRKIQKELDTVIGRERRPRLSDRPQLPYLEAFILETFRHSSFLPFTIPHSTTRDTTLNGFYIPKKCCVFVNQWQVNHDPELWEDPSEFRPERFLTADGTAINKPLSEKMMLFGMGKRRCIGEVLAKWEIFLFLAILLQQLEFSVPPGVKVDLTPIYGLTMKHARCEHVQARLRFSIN
assay.metric: IC50

Entry "CC(C)(C)[C@H](NC(=O)CC12CC3CC(CC(C3)C1)C2)C(=O)N1C[C@@H]2CCC[C@@H]2[C@H]1C(=O)N[C@H](C(=O)C(=O)NC1CC1)C1CCCCC1" , Cytochrome P450 1A2 (Homo sapiens, UniProt P05177) data, IC50 value: > 50 µM

* * *

test: Inhibition of Enterovirus D68 US/KY/14-18953 2A protease expressed in Escherichia coli BL21(DE3) using Dabcyl-KIRIVNT/GPGEGGE-Edans as substrate incubated for 2 hrs by FRET assay
Measured IC50, listed per entry.
Numeric only. Scale: nM

Illustrative cases are given below, each with its answer.
chem.smiles	IC50 [nM]
CCC[C@H](NC(=O)[C@@H]1[C@H]2CCC[C@H]2CN1C(=O)[C@@H](NC(=O)[C@@H](NC(=O)c1cnccn1)C1CCCCC1)C(C)(C)C)C(=O)C(=O)NC1CC1	180
CCC[C@H](NC(=O)[C@@H]1[C@H]2CCC[C@H]2CN1C(=O)[C@@H](NC(=O)NC(C)(C)C)C(C)(C)C)C(=O)C(=O)NC1CC1	1160
COC[C@H](NC(=O)[C@@H]1[C@H]2CCC[C@H]2CN1C(=O)[C@@H](NC(=O)CC12CC3CC(CC(C3)C1)C2)C(C)(C)C)C(=O)C(=O)NC1CC1	120

response.value for "CC(C)(C)[C@H](NC(=O)CC12CC3CC(CC(C3)C1)C2)C(=O)N1C[C@@H]2CCC[C@@H]2[C@H]1C(=O)N[C@H](C(=O)C(=O)NC1CC1)C1CCCCC1" (field: IC50) = 90

// "CCC[C@H](NC(=O)[C@@H]1[C@H]2CCC[C@H]2CN1C(=O)[C@@H](NC(=O)CC1CCCCC1)C(C)(C)C)C(=O)C(=O)NC1CC1" : IC50 value = 90

Field IC50 (entry "CC(C)(C)Oc1ccc(C[C@H](NC(=O)[C@@H]2[C@H]3CCC[C@H]3CN2C(=O)[C@@H](NC(=O)CC23CC4CC(CC(C4)C2)C3)C(C)(C)C)C(=O)C(=O)NC2CC2)cc1" ) reads 180

Given item "CC(C)(C)[C@H](NC(=O)CC12CC3CC(CC(C3)C1)C2)C(=O)N1C[C@@H]2CCC[C@@H]2[C@H]1C(=O)N[C@H](C(=O)C(=O)NC1CC1)C1CCCC1" , the value recorded as its IC50 is 200

IC50 reading for "CC(C)(C)[C@H](NC(=O)CC12CC3CC(CC(C3)C1)C2)C(=O)N1C[C@@H]2CCC[C@@H]2[C@H]1C(=O)NC1(C(=O)C(=O)NC2CC2)CCC1" : 4810

What the record says about "CC(C)[C@H](NC(=O)[C@@H]1[C@H]2CCC[C@H]2CN1C(=O)[C@@H](NC(=O)CC12CC3CC(CC(C3)C1)C2)C(C)(C)C)C(=O)C(=O)NC1CC1" : IC50 is 90

Recorded result, "CC(C)(C)[C@H](NC(=O)CC12CC3CC(CC(C3)C1)C2)C(=O)N1C[C@@H]2CCC[C@@H]2[C@H]1C(=O)N[C@@H](Cc1ccccc1)C(=O)C(=O)NC1CC1" , IC50: 90

* * *

test system: enterovirus D68; experiment: Antiviral activity against enterovirus D68 US/MO/14-18947 infected in human RD cells assessed as reduction in virus induced cytopathic effect by neutral red staining based CPE assay; format: functional, organism-based; conditions: Enterovirus D, US/MO/14-18947, RD
assay.metric: EC50 (nM)
The figure you give is taken to be in nM; do not add the unit.

                                chem_smiles           system  reported_result
0  CCC[C@H](NC(=O)[C@@H]1[C@H]2CCC[C@H]2CN1C(=O)[C@@H](NC(=O)CC1CCCC1)C(C)(C)C)C(=O)C(=O)NC1CC1  enterovirus D68              700
1  CCC[C@H](NC(=O)[C@@H]1[C@H]2CCC[C@H]2CN1C(=O)[C@@H](NC(C)=O)C(C)(C)C)C(=O)C(=O)NC1CC1  enterovirus D68             4650
2  CC(C)(C)[C@H](NC(=O)CC12CC3CC(CC(C3)C1)C2)C(=O)N1C[C@@H]2CCC[C@@H]2[C@H]1C(=O)N[C@@H](CC1CC1)C(=O)C(=O)NC1CC1  enterovirus D68              230
3  CC(C)(C)[C@H](NC(=O)CC12CC3CC(CC(C3)C1)C2)C(=O)N1C[C@@H]2CCC[C@@H]2[C@H]1C(=O)N[C@H](C=O)Cc1ccc(F)cc1  enterovirus D68             1300

// next item, EC50 requested
Briefly, EC50 measured for "CCC[C@H](NC(=O)[C@@H]1[C@H]2CCC[C@H]2CN1C(=O)[C@@H](NC(=O)Cc1ccccc1)C(C)(C)C)C(=O)C(=O)NC1CC1" : 1970

* * *

test system: enterovirus D68; assay: Antiviral activity against enterovirus D68 US/MO/14-18947 infected in human RD cells assessed as reduction in virus induced cytopathic effect by neutral red staining based CPE assay; assay type: functional, organism-based; conditions: Enterovirus D, US/MO/14-18947, RD
assay.metric: pEC50
API: returns pEC50 as number; meaning -log10 of concentration in mol/L.

Worked set:
                                chem_smiles           system  assay_metric  reported_result
0  CC(C)(C)[C@H](NC(=O)CC12CC3CC(CC(C3)C1)C2)C(=O)N1C[C@@H]2CCC[C@@H]2[C@H]1C(=O)N[C@H](C(=O)C(=O)NC1CC1)C1CCCC1  enterovirus D68         pEC50             6.96
1  CC(C)(C)[C@H](NC(=O)CC12CC3CC(CC(C3)C1)C2)C(=O)N1C[C@@H]2CCC[C@@H]2[C@H]1C(=O)N[C@@H](Cc1ccsc1)C(=O)C(=O)NC1CC1  enterovirus D68         pEC50             6.62
2  CC(C)(C)[C@H](NC(=O)CC12CC3CC(CC(C3)C1)C2)C(=O)N1C[C@@H]2CCC[C@@H]2[C@H]1C(=O)N[C@H](C(=O)C(=O)NC1CC1)c1ccc(F)cc1  enterovirus D68         pEC50             6.11
3  CC(C)(C)[C@H](NC(=O)NC12CC3CC(CC(C3)C1)C2)C(=O)N1C[C@@H]2CCC[C@@H]2[C@H]1C(=O)N[C@@H](Cc1ccc(F)cc1)C(=O)C(=O)NC1CC1  enterovirus D68         pEC50             6.46

Given item "CCC[C@H](NC(=O)[C@@H]1[C@H]2CCC[C@H]2CN1C(=O)[C@@H](NC(=O)/C=C/c1ccccc1)C(C)(C)C)C(=O)C(=O)NC1CC1" , the value recorded as its pEC50 is 5.40

* * *

assay: Cytotoxicity against human RD cells assessed as reduction in cell viability by neutral red staining based CPE assay; type: toxicity; conditions: RD cells
// NB: equality with 20 µM counts as N; only CC50 strictly below is Y

Example entries and their recorded answers appear below.
compound	class
CCC[C@H](NC(=O)[C@@H]1[C@H]2CCC[C@H]2CN1C(=O)[C@@H](NC(=O)OCc1ccccc1)C(C)(C)C)C(=O)C(=O)NC1CC1	N
CCC[C@H](NC(=O)[C@@H]1[C@H]2CCC[C@H]2CN1C(=O)[C@@H](NC(=O)[C@@H](NC(=O)OCc1ccccc1)C1CCCCC1)C(C)(C)C)C(=O)C(=O)NC1CC1	N
CCC[C@H](NC(=O)[C@@H]1[C@H]2CCC[C@H]2CN1C(=O)[C@@H](NC(=O)CC1CCCCC1)C(C)(C)C)C(=O)C(=O)NC1CC1	N
CC(C)(C)[C@H](NC(=O)CC12CC3CC(CC(C3)C1)C2)C(=O)N1C[C@@H]2CCC[C@@H]2[C@H]1C(=O)N[C@@H](CC1CC1)C(=O)C(=O)NC1CC1	N

Quick check: does "CC(C)(C)[C@H](NC(=O)CC12CC3CC(CC(C3)C1)C2)C(=O)N1C[C@@H]2CCC[C@@H]2[C@H]1C(=O)N[C@H](C(=O)C(=O)NC1CC1)C1CCCC1" have CC50 under 20 µM? N

Bench note: check whether "CCC[C@H](NC(=O)[C@@H](NC(=O)[C@@H](NC(=O)CC12CC3CC(CC(C3)C1)C2)C(C)(C)C)C1CCCCC1)C(=O)C(=O)NC1CC1" shows CC50 below 20 µM Y

Does this compound meet the criterion CC50 < 20 µM? "CC(C)(C)[C@H](NC(=O)CC12CC3CC(CC(C3)C1)C2)C(=O)N1C[C@@H]2CCC[C@@H]2[C@H]1C(=O)NC1(C(=O)C(=O)NC2CC2)CCCCC1" N

CC50 strictly < 20 µM for this compound? "COC[C@H](NC(=O)[C@@H]1[C@H]2CCC[C@H]2CN1C(=O)[C@@H](NC(=O)CC12CC3CC(CC(C3)C1)C2)C(C)(C)C)C(=O)C(=O)NC1CC1" N

Is it true that CC50 reported for CCC[C@H](NC(=O)[C@@H]1[C@H]2CCC[C@H]2CN1C(=O)[C@@H](NC(=O)CC1C2CC3CC(C2)CC1C3)C(C)(C)C)C(=O)C(=O)NC1CC1 (stereo partly specified) is less than 20 µM? N

# strict comparison: is reported CC50 < 20 µM? input = "CCC[C@H](NC(=O)[C@H](CC1CCCCC1)NC(=O)[C@@H](NC(=O)CC12CC3CC(CC(C3)C1)C2)C(C)(C)C)C(=O)C(=O)NC1CC1" Y

Problem: For the compound "CC(C)(C)[C@H](NC(=O)CC12CC3CC(CC(C3)C1)C2)C(=O)N1C[C@@H]2CCC[C@@H]2[C@H]1C(=O)N[C@H](C=O)Cc1ccc(F)cc1" , is CC50 under 20 µM? Y
